Experiment: Ratio of drug concentration in brain to plasma of C57BL/6 mouse at 1 mg/kg, ip measured for 0.5 hrs by LC-MS/MS analysis
Assay type: ADME, organism-based
Details: read-out: BPR
metric_name: Kp at 0.5 h
Kindly provide the number alone.

For record Cc1ccc2c(n1)N(Cc1ccc(C(=O)NO)cc1F)CCC2 the listed Kp at 0.5 h is 7.9

* * *

Assay: […] bioavailability in C57BL/6 mouse at 20 mg/kg by LC-MS/MS analysis
Type: ADME, organism-based
Conditions: in vivo
metric_name: bioavailability (%)
Please reply with the bare figure in % and do not write the unit itself.

For record Cc1ccc2c(n1)N(Cc1ccc(C(=O)NO)cc1F)CCC2 the listed bioavailability is 47.7
